assay-target: D(2) dopamine receptor (Homo sapiens)
Sequence (P14416 whole entry): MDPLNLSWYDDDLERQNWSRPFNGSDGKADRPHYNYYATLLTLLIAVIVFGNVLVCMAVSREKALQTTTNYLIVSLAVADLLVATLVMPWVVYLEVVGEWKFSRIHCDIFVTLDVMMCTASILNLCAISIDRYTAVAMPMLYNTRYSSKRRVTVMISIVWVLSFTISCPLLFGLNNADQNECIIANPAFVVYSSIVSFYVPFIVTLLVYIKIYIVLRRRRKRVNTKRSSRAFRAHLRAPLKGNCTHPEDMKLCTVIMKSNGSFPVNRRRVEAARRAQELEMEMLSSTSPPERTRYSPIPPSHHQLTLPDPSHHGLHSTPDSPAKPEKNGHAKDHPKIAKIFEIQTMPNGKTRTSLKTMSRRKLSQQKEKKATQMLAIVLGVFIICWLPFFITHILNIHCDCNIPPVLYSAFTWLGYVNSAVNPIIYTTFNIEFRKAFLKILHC
test-protocol: Agonist activity at human D2S receptor expressed in CHOK1 cells assessed as inhibition of forskolin induced cAMP production preincubated for 10 mins followed by forskolin addition and measured after 5 mins by HTRF assay relative to control
readout-label: EC50 (nM)

- CN1CCc2cc(O)c(O)cc2C1Cc1ccccc1Br (stereo unspecified): 2950

###

assay-target: D(3) dopamine receptor (Homo sapiens)
Sequence (P35462 whole entry): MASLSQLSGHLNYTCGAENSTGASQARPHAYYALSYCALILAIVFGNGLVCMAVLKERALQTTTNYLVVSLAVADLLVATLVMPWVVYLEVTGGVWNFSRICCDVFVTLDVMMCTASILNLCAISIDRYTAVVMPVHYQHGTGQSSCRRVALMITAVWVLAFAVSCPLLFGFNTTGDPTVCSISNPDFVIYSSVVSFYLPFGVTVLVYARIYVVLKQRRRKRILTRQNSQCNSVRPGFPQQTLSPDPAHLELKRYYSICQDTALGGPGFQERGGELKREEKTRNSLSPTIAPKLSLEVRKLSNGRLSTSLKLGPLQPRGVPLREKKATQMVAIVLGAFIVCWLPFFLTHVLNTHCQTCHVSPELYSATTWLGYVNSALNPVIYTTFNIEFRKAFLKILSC
pKi: −log10 of the molar value.
readout-label: pKi

• CN1CCc2cc(O)c(O)c3c2C1Cc1ccccc1-3 (stereo unspecified) = 6.08
